- Test system: MCF7
- protocol description: Induction of apoptosis in human MCF7 cells assessed as P1 population at 200 uM after 48 hrs by annexin V-FITC/propidium iodide staining-based FACS flow cytometric analysis relative to control
- Format: functional
recorded endpoint: Activity (%)
Record the value in %, omitting the unit from your answer.

Please review the following examples before continuing.
# query smiles, Activity, %
records = [
    ("CCCCN(CCCC)CC(=O)Nc1cc(C(F)(F)F)cc2c1SSSSS2", 10.5),
    ("Nc1cc(C(F)(F)F)cc2c1SSSSS2", 0.8),
    ("O=C(Nc1cc(C(F)(F)F)cc2c1SSSSS2)C(F)(F)F", 20.1),
]

Here is the next item to consider.
INPUT: Query (compound): `O=C(CN1CCCCC1)Nc1cc(C(F)(F)F)cc2c1SSSSS2` ; field requested: Activity
OUTPUT: 0.9
